experiment: Pharmacokinetics, unchanged RAF265 in plasma; assay type: in vivo, human; conditions: human, plasma, oral, 322 mg, Cycle 1 Day 1, DL 7, LD 322 mg; read-out: Cmax, Mean (SD)
Result type: Cmax (ng/mL)
Express the result in ng/mL but write the number alone.

(Q) # Cmax lookup, item Cn1c(Nc2ccc(C(F)(F)F)cc2)nc2cc(Oc3ccnc(-c4ncc(C(F)(F)F)[nH]4)c3)ccc21 [RAF265]
(A) 2720

###

assay: Pharmacokinetics, unchanged RAF265 in plasma; format: in vivo, human; settings: human, plasma, oral, 3 mg, Cycle 1 Day 15, DL 2, MD 3 mg; read-out: Cmax, Mean (SD)
Result type: Cmax (ng/mL)
Enter your answer as a number in ng/mL; do not include the unit.

(Q) Returns the measured Cmax for the input compound. Input: Cn1c(Nc2ccc(C(F)(F)F)cc2)nc2cc(Oc3ccnc(-c4ncc(C(F)(F)F)[nH]4)c3)ccc21 [RAF265]
(A) 120

###

assay: Pharmacokinetics, unchanged RAF265 in plasma; format: in vivo, human; conditions: human, plasma, oral, 6 mg, Cycle 1 Day 15, DL 3, MD 6 mg; read-out: Cmax, Mean (SD)
Result type: Cmax (ng/mL)
Express your answer in ng/mL, writing the number without its unit.

(Q) Tell me the measured Cmax of Cn1c(Nc2ccc(C(F)(F)F)cc2)nc2cc(Oc3ccnc(-c4ncc(C(F)(F)F)[nH]4)c3)ccc21 [RAF265] , please.
(A) 200

###

assay: Pharmacokinetics, unchanged RAF265 in plasma; format: in vivo, human; settings: human, plasma, oral, 36 mg, First dose (PK run-in), DL 3, 36 mg; read-out: T1/2, Median (converted)
Result type: half-life (h)
Report the value in h with no unit label.

(Q) If you can, please state the reported half-life value of `Cn1c(Nc2ccc(C(F)(F)F)cc2)nc2cc(Oc3ccnc(-c4ncc(C(F)(F)F)[nH]4)c3)ccc21` .
(A) 127

###

assay: Pharmacokinetics, unchanged RAF265 in plasma; assay type: in vivo, human; details: human, plasma, oral, 403 mg, First dose (PK run-in), DL 7, 403 mg; read-out: Cmax, Mean (SD)
Result type: Cmax (µg/mL)
Answer format: numeric, µg/mL implied, no suffix.

(Q) What does the data say about its Cmax? Entry: Cn1c(Nc2ccc(C(F)(F)F)cc2)nc2cc(Oc3ccnc(-c4ncc(C(F)(F)F)[nH]4)c3)ccc21 [RAF265]
(A) 2.68

###

test: Pharmacokinetics, unchanged RAF265 in plasma; assay type: in vivo, human; details: human, plasma, oral, 10 mg, First dose (PK run-in), DL 1, 10 mg; read-out: T1/2, Median (converted)
Result type: half-life (days)
Give just the number in days; leave the unit off.

(Q) Param item = `Cn1c(Nc2ccc(C(F)(F)F)cc2)nc2cc(Oc3ccnc(-c4ncc(C(F)(F)F)[nH]4)c3)ccc21` ; retrieve measured half-life.
(A) 12

###

assay: Pharmacokinetics, unchanged RAF265 in plasma; type: in vivo, human; details: human, plasma, oral, 48 mg, Cycle 1 Day 15, DL 6, MD 48 mg; read-out: Tmax, Median
Result type: Tmax
For clarity, give the value followed by its unit.

(Q) Recorded Tmax of `Cn1c(Nc2ccc(C(F)(F)F)cc2)nc2cc(Oc3ccnc(-c4ncc(C(F)(F)F)[nH]4)c3)ccc21` , please.
(A) 3.93 h
